Test system: Diabrotica balteata (Corn Root Worm)
Measurement protocol: Example B2: Activity against Diabrotica balteata (corn root worm), maize sprouts, L2 larvae
Assay type: in vivo
Setup conditions: 96 h, application rate of 200 ppm, 4 days after infestation, in comparison to untreated samples, read-out: effect in at least one of the two categories (mortality or growth inhibition)
Description: Example B2: Activity Against Diabrotica balteata (Corn Root Worm) Maize sprouts placed onto an agar layer in 24-well microtiter plates were treated with aqueous test solutions prepared from 10′000 ppm DMSO stock solutions by spraying. After drying, the plates were infested with L2 larvae (6 to 10 per well). The samples were assessed for mortality and growth inhibition in comparison to untreated samples 4 days after infestation.
Measured attribute: percent effect (mortality or growth inhibition) at 200 ppm

Consider the reported percent effect (mortality or growth inhibition) at 200 ppm for these compounds:
CCS(=O)(=O)c1cc(C2(C#N)CC2)cnc1N1CCc2c(ccc3c2OC(F)(F)O3)C1=O [P.6] :: ≥ 80%
CCS(=O)(=O)c1cc(C2(C#N)CC2)cnc1N1CCc2cc(OC(F)(F)F)ccc2C1=O [P.4] :: ≥ 80%
CCS(=O)(=O)c1cc(C2(C#N)CC2)cnc1N1CCc2nc(OCC(F)(F)Cl)ccc2C1=O [P.9] :: ≥ 80%
CCS(=O)(=O)c1cc(C2(C#N)CC2)cnc1N1CCc2nc(OCC(F)(F)C(F)(F)F)ccc2C1=O [P.12] :: ≥ 80%

For CCS(=O)(=O)c1cc(C2(C#N)CC2)cnc1N1CCc2nc(OCC(F)(F)C(F)F)ccc2C1=O [P.10] on Diabrotica balteata (Corn Root Worm), measured percent effect (mortality or growth inhibition) at 200 ppm was ≥ 80%

Entry CCS(=O)(=O)c1cc(C2(C#N)CC2)cnc1N1CCc2cc(C(F)(F)F)ccc2C1=O [P.2] , Diabrotica balteata (Corn Root Worm) data, percent effect (mortality or growth inhibition) at 200 ppm value: ≥ 80%

Lab note: compound CCS(=O)(=O)c1cc(C2(C#N)CC2)cnc1N1CCc2nc(C(F)(F)C(F)(F)F)ccc2C1=O [P.5] tested on Diabrotica balteata (Corn Root Worm); recorded percent effect (mortality or growth inhibition) at 200 ppm was ≥ 80%

Response field percent effect (mortality or growth inhibition) at 200 ppm (Diabrotica balteata (Corn Root Worm)) for item CCS(=O)(=O)c1cc(C2(C#N)CC2)cnc1N1CCc2nc(C(F)(F)F)ccc2C1=O [P.3] : ≥ 80%

I looked up CCS(=O)(=O)c1c(N2CCc3nc(C(F)(F)F)ccc3C2=O)nc2cc(C(F)(F)F)ccn12 [P.1] and its percent effect (mortality or growth inhibition) at 200 ppm for Diabrotica balteata (Corn Root Worm) was ≥ 80%

Tested on Diabrotica balteata (Corn Root Worm), the item CCS(=O)(=O)c1cc(C2(C#N)CC2)cnc1N1CCc2nc(OC3CC3)ccc2C1=O [P.7] showed percent effect (mortality or growth inhibition) at 200 ppm equal to ≥ 80%
